molecular target: T1, 006 PSMA Fab (biotinylated (site not given)); assay: clonal phage ELISA, biotinylated PSMA Fab on neutravidin plate, anti-M13 HRP detection;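 also: crude clonal phage supernatants added to wells pretreated with blocking buffer either with or without PSMA antigen, bound phage read after washing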
T1 construct: Biotinylated PSMA Fab captured on neutravidin coated plates for the clonal phage ELISA; also called Anti-PSMA Fab
Where no end group is shown, it is not given here.
quantity.name: Phage binding ELISA signal, Anti-PSMA Fab
# output: bare number, no unit

Exam item: Would you mind telling me what Phage binding ELISA signal, Anti-PSMA Fab value was observed for SDKWCIPVWMCEES (cysteine pairing not given here; also: displayed on phage as fusion to pIII, pIII and linker sequence not given here, not shown: fused to pIII of the bacteriophage) [Phage-2501] ?
Marked response: 1.21

Exam item: Form field: reported Phage binding ELISA signal, Anti-PSMA Fab of VERLCKPLWMCQER (cysteine pairing not given here; also: fused to phage pIII, linker and fusion site not given here, not shown: fused to pIII of the bacteriophage) [Phage-2507]
Marked response: 1.2

Data provenance is patent US20260242478A1.
